# protocol details: protein stability index of a GFP-peptide fusion (GPS, HEK-293T) (PSI 1-6); higher = more stable;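 note: 24-mer peptide tiles fused after GFP, lentivirally expressed, FACS-sorted into six equal bins by GFP/DsRed ratio, decoded by Illumina sequencing, PSI is the read-weighted mean bin number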
# protocol conditions: treatment: DMSO; c terminus: a fixed tail appended
I'd be grateful if you could share measured protein stability index for these entries.
Numbers only.

A selection of reference data follows.
                        sequence_chain        measured_quantity  reported_result
0   GSVAVVEAECEKSSATTYFWYREA [SLC6A17]  protein stability index             2.81
1    WLDNPERWNKVKMVVSREEVELAY [SEPHS2]  protein stability index             2.87
2      MQKRSKAIHSSDEDEDEDDEEDFE [WASL]  protein stability index             4.58
3   AWNSPFYNCGEESLQSCMHFQPNS [NANOGP8]  protein stability index             2.41
4     LDRFLSLEPVKKSRLQLLGATCMF [CCND1]  protein stability index             2.42
5      AAETRGAVEGAARTTPSRREITGV [PALM]  protein stability index             4.86
6    EPITGWRKTVCHNGVLGLSRLLFF [LPCAT4]  protein stability index             2.57
7    IRTSERVTLIVDNTRFVVDPSIFT [BTBD10]  protein stability index             2.35
8  IDPLLYMTEWFMCAFSRTLPWSSV [TBC1D10A]  protein stability index             3.43
9    EMSKDANFGLRLVVQRCSGQKWMI [GALNT9]  protein stability index              2.2

Below are 2 sequences. Give each one its protein stability index.
1. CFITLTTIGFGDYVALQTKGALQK [KCNK9]
2. LHESYCMDTSHQPLLPAPPKTPMD [LYSMD4]

*A*
1. 2.97
2. 4.65
